The measured values listed here are drawn from paper PMC12621019.

Test: Cytotoxicity assay (CellTiter Glo) in NHDF cells
Details: human, CC50, NHDF cells, maximum 40 μM
property: CC50 at 72 h (µM)
Quick reminder: number only, in µM, skip the unit.

Here's what some known entries look like.
{"molecule": "COc1c(F)cc(-n2c([C@@H]3CCCN3)nc3cc(N4CCNCC4)c(Cl)cc3c2=O)cc1F [(S)-1e]", "unit_tag": "µM", "meas_value": 22.8}
{"molecule": "COc1c(F)cc(-n2c([C@@H]3CCCNC3)nc3cc(N4CCN(C)CC4)c(Cl)cc3c2=O)cc1F [(R)-1m]", "unit_tag": "µM", "meas_value": 23.3}

Q: Answer with the recorded CC50 at 72 h for the molecule listed here: "COc1c(F)cc(-n2c(C3CCNCC3)nc3cc(N4CCN(C(C)C)CC4)c(Cl)cc3c2=O)cc1F"
A: 29.1

Q: Answer with the recorded CC50 at 72 h for the molecule listed here: COc1c(F)cc(-n2c([C@@H]3CCCCN3C)nc3cc(N4CCN(C(C)C)CC4)c(Cl)cc3c2=O)cc1F [(S)-1z]
A: 36.5

Q: Answer with the recorded CC50 at 72 h for the molecule listed here: CC(C)N1CCN(c2cc3nc([C@@H]4CCCNC4)n(-c4cccc(Cl)c4)c(=O)c3cc2Cl)CC1 [(R)-1w]
A: 18

Q: Answer with the recorded CC50 at 72 h for the molecule listed here: COc1c(F)cc(-n2c([C@@H]3CCCNC3)nc3cc(N4CCN(C(C)C)CC4)c(Cl)cc3c2=O)cc1F [(R)-1g]
A: 16.2

Q: Answer with the recorded CC50 at 72 h for the molecule listed here: COc1c(F)cc(-n2c([C@@H]3CCCNC3)nc3cc(N(C)CCN(C)C)c(Cl)cc3c2=O)cc1F [(R)-1q]
A: 26.6

Q: Answer with the recorded CC50 at 72 h for the molecule listed here: CC(C)N1CCN(c2cc3nc(C4CCCCN4)n(-c4ccc(Cl)cc4)c(=O)c3cc2Cl)CC1 (racemic)
A: 20.9

Q: Answer with the recorded CC50 at 72 h for the molecule listed here: COc1c(F)cc(-n2c([C@@H]3CCCNC3)nc3cc(N4CCN(C(C)(C)C)CC4)c(Cl)cc3c2=O)cc1F [(R)-1j]
A: 17.1
